Catalogue of IC50 values
biological target: VEGFR2 (Homo sapiens, UniProt P35968); construct: purchased Carna 08-191; assay: Assay I: VEGFR2 kinase inhibition (HTRF KinEASE-TK); assay type: biochemical; details: ATP 5 μM, substrate TK 1 μM
Sequence (P35968 20-1356): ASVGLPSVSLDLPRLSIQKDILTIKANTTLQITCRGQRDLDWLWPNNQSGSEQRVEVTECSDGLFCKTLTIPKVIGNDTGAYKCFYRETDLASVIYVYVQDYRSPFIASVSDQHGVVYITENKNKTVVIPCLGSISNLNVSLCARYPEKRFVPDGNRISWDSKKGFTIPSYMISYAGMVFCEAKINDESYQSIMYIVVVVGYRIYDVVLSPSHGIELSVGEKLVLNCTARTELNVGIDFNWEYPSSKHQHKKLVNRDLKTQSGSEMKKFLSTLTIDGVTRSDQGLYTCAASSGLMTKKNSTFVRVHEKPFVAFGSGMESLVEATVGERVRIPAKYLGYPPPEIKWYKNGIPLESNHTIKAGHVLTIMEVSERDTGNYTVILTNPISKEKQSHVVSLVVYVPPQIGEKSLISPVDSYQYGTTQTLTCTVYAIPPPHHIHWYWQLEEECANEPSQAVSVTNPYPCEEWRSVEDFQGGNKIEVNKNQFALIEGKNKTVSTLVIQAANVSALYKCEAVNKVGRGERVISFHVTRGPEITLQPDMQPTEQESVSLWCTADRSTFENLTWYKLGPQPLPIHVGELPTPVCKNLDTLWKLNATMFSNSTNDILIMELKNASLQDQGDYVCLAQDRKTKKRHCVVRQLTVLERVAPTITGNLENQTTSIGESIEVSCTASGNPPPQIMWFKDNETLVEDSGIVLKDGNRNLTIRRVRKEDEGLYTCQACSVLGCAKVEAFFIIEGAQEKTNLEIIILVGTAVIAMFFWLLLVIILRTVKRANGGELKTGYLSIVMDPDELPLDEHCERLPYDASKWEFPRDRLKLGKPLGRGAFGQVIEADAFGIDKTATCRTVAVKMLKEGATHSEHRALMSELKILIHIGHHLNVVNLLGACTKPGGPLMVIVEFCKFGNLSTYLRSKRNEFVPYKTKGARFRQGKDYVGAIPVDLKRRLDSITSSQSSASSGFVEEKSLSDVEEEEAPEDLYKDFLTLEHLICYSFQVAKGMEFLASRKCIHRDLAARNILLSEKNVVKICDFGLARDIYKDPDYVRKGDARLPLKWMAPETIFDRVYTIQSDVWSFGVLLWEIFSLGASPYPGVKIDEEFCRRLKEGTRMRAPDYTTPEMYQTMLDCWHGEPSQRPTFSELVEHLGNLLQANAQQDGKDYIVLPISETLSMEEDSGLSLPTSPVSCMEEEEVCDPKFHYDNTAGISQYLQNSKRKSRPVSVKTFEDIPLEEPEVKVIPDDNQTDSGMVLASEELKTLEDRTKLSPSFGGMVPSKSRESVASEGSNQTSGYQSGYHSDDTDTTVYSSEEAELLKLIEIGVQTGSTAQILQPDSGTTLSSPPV
READOUT_TYPE: IC50 (nM)

>>> recorded_measurement("CC(Oc1ccc2[nH]nc(-c3nc4c([nH]3)CN(C(=O)N3CCOCC3)C4)c2c1)c1c(Cl)cncc1Cl (stereo not drawn)")
2.1
>>> recorded_measurement("CC(Oc1ccc2[nH]nc(-c3nc4c([nH]3)CN(S(C)(=O)=O)C4)c2c1)c1c(Cl)cncc1Cl (stereo not drawn)")
22.1
>>> recorded_measurement("C[C@@H](Oc1ccc2[nH]nc(-c3nc4c([nH]3)CN(C(=O)CN3CC(O)C3)C4)c2c1)c1c(Cl)cncc1Cl")
13.6
>>> recorded_measurement("C[C@@H](Oc1ccc2[nH]nc(-c3nc4c([nH]3)CN(C(=O)CN3CC[C@H](O)C3)C4)c2c1)c1c(Cl)cncc1Cl")
10.3
>>> recorded_measurement("CC(Oc1ccc2[nH]nc(-c3nc4c([nH]3)CN(C(=O)CN3CCC(C#N)C3)C4)c2c1)c1c(Cl)cncc1Cl (stereo not drawn)")
3.7
>>> recorded_measurement("CC(Oc1ccc2[nH]nc(-c3nc4c([nH]3)CN(S(=O)(=O)c3ccn(C)n3)C4)c2c1)c1c(Cl)cncc1Cl (stereo not drawn)")
13.3
>>> recorded_measurement("CNC(=O)N1Cc2nc(-c3n[nH]c4ccc(O[C@H](C)c5c(Cl)cncc5Cl)cc34)[nH]c2C1")
6.3
>>> recorded_measurement("CC(Oc1ccc2[nH]nc(-c3nc4c([nH]3)CN(CC3CCN(C)CC3)C4)c2c1)c1c(Cl)cncc1Cl (stereo not drawn)")
2.6
>>> recorded_measurement("C[C@@H](Oc1ccc2[nH]nc(-c3nc4c([nH]3)CN(C3CCN(S(C)(=O)=O)C3)C4)c2c1)c1c(Cl)cncc1Cl (stereo partly drawn)")
60.5
>>> recorded_measurement("CC(Oc1ccc2[nH]nc(-c3nc4c([nH]3)CNC4)c2c1)c1c(Cl)cncc1Cl (stereo not drawn)")
31
>>> recorded_measurement("C[C@@H](Oc1ccc2[nH]nc(-c3nc4c([nH]3)CN(C(=O)CN(C)C)C4)c2c1)c1c(Cl)cncc1Cl")
3.3
>>> recorded_measurement("C[C@@H](Oc1ccc2[nH]nc(-c3nc4c([nH]3)CN(C(=O)CN3CC[C@@H](O)C3)C4)c2c1)c1c(Cl)cncc1Cl")
2.4
>>> recorded_measurement("CC(Oc1ccc2[nH]nc(-c3nc4c([nH]3)CN(C(=O)C3CCN(C)CC3)C4)c2c1)c1c(Cl)cncc1Cl (stereo not drawn)")
3.1
>>> recorded_measurement("C[C@@H](Oc1ccc2[nH]nc(-c3nc4c([nH]3)CN(C(=O)[C@@H]3CCCCN3C)C4)c2c1)c1c(Cl)cncc1Cl")
2.5
>>> recorded_measurement("C[C@@H](Oc1ccc2[nH]nc(-c3nc4c([nH]3)CN(C(=O)CN3CC(F)C3)C4)c2c1)c1c(Cl)cncc1Cl")
45.5
>>> recorded_measurement("C[C@@H](Oc1ccc2[nH]nc(-c3nc4c([nH]3)CN(C(=O)CN3CCCCC3)C4)c2c1)c1c(Cl)cncc1Cl")
8.4
>>> recorded_measurement("CC(Oc1ccc2[nH]nc(-c3nc4c([nH]3)CN(C(=O)N3CC[C@H](O)C3)C4)c2c1)c1c(Cl)cncc1Cl (stereo partly drawn)")
2.4
>>> recorded_measurement("CC(Oc1ccc2[nH]nc(-c3nc4c([nH]3)CN(C(=O)CN3CCC(O)C3)C4)c2c1)c1c(Cl)cncc1Cl (stereo not drawn)")
14
>>> recorded_measurement("C[C@@H](Oc1ccc2[nH]nc(-c3nc4c([nH]3)CN(C(=O)CN3CCC(F)C3)C4)c2c1)c1c(Cl)cncc1Cl (stereo partly drawn)")
11.1
>>> recorded_measurement("C[C@@H](Oc1ccc2[nH]nc(-c3nc4c([nH]3)CN(C(=O)[C@@H]3CCCN3)C4)c2c1)c1c(Cl)cncc1Cl")
5.3
>>> recorded_measurement("CC(Oc1ccc2[nH]nc(-c3nc4c([nH]3)CN(C3CCC(O)CC3)C4)c2c1)c1c(Cl)cncc1Cl (stereo not drawn)")
11.7
>>> recorded_measurement("C[C@@H](Oc1ccc2[nH]nc(-c3nc4c([nH]3)CN(C(=O)[C@@H]3CCCCN3)C4)c2c1)c1c(Cl)cncc1Cl")
9.9
>>> recorded_measurement("CC(Oc1ccc2[nH]nc(-c3nc4c([nH]3)CN(C(=O)N3CCN(C)CC3)CC4)c2c1)c1c(Cl)cncc1Cl (stereo not drawn)")
0.75
>>> recorded_measurement("C[C@@H](Oc1ccc2[nH]nc(-c3nc4c([nH]3)CN(C(=O)[C@@H]3CCCN3C)C4)c2c1)c1c(Cl)cncc1Cl")
7.6
>>> recorded_measurement("CC(Oc1ccc2[nH]nc(-c3nc4c([nH]3)CN(S(=O)(=O)c3cnn(C)c3)C4)c2c1)c1c(Cl)cncc1Cl (stereo not drawn)")
19.6
>>> recorded_measurement("CC(Oc1ccc2[nH]nc(-c3nc4c([nH]3)CN(CCN3CCOCC3)C4)c2c1)c1c(Cl)cncc1Cl (stereo not drawn)")
14.2
>>> recorded_measurement("C[C@@H](Oc1ccc2[nH]nc(-c3nc4c([nH]3)CN(C3CCN(C)C3)C4)c2c1)c1c(Cl)cncc1Cl (stereo partly drawn)")
27.5

From: patent US20230374025A1
